B1: glmS ribozyme (parent)
chain: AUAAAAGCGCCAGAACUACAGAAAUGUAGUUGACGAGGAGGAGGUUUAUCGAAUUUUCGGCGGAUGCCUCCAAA

variants of: B1; assay: self-cleavage kobs at 10000 uM GlcN6P; higher = faster cleavage; RNA array; settings: with glucosamine-6-phosphate
Variants at the floor of the assay were thinned out.
Kind request: treat 0.0002 s⁻¹ as inclusive, so self-cleavage kobs at 10000 uM GlcN6P at 0.0002 s⁻¹ or higher is MET, anything lower is NOT MET.

Example entries and their recorded answers appear below.
Mutation Notation: A39U C70U
Label Value: MET
--
Mutation Notation: C50G U56G C61A
Label Value: NOT MET
--
Mutation Notation: G32U U54G
Label Value: MET
--
Mutation Notation: A39U U56G
Label Value: MET
--
Mutation Notation: A15C C70G
Label Value: NOT MET
--
Mutation Notation: A14U G43A C61G U65A
Label Value: NOT MET
--
Mutation Notation: A48C A64G
Label Value: NOT MET
--
Mutation Notation: G41U G63A
Label Value: NOT MET

Reported self-cleavage kobs at 10000 uM GlcN6P at or above 0.0002 s⁻¹? G13U A15C C58G
NOT MET

Reported self-cleavage kobs at 10000 uM GlcN6P at or above 0.0002 s⁻¹? A6U G7U G13U U31C
NOT MET

Reported self-cleavage kobs at 10000 uM GlcN6P at or above 0.0002 s⁻¹? A36C G37A
NOT MET

Reported self-cleavage kobs at 10000 uM GlcN6P at or above 0.0002 s⁻¹? G29C A42C
NOT MET

Reported self-cleavage kobs at 10000 uM GlcN6P at or above 0.0002 s⁻¹? A12U G62U C70U
NOT MET

Reported self-cleavage kobs at 10000 uM GlcN6P at or above 0.0002 s⁻¹? C16G U45C
MET

Reported self-cleavage kobs at 10000 uM GlcN6P at or above 0.0002 s⁻¹? U31C G40U U47A
NOT MET

Reported self-cleavage kobs at 10000 uM GlcN6P at or above 0.0002 s⁻¹? U30C G38U G43C U46G
NOT MET
